Attribution: patent US20220025021A1

- TARGET DESC: HIV-1 Env of pseudovirus CNE52 (HIV-1)
- PROTOCOL DETAILS: cell-based or functional assay
// reported neutralization IC80 for each item listed
ENDPOINT NAME: neutralization IC80 (µg/mL)

MS-76 (antibody, V domains shown) VH: QVQLVQSGPEVRKPGTSVKVSCKAPGYTLKTYDLHWVRSVPGQGLQWMGWISHEGDKKVIVERFKAKVTIDWDRSTNTAYLQLSGLTSGDTAVYYCAKGSKHRLRDYALYDDDGALNWAVDVDYLSNLEFWGQGTAVTVSS VL: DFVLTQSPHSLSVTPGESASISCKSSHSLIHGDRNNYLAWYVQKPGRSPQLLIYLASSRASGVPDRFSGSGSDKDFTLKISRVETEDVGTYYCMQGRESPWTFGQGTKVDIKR	1.37
MS-81 (antibody, V domains shown) VH: QVQLVQSGPEVRKPGTSVKVSCKAPGNTLKTYDLHWVRSVPGQGLQWMGWISHEGDKKVIVERFKAKVTIDWDRSTNTAYLELSGLTSGDTAVYYCAKGSKHRLRDYALYDDDGALNWAVDVDYLSNLEFWGQGTAVTVSS VL: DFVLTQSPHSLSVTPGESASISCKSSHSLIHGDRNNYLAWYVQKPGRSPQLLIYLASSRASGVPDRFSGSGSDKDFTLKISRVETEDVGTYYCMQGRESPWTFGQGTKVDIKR	1.8
MS-70 (antibody, V domains shown) VH: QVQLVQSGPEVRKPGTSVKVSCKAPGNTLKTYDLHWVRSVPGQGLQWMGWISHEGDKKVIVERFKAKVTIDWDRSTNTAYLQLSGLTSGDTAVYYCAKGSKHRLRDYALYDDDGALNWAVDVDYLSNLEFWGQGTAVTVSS VL: DFVLTQSPHSLSVTPGESASISCKSSHSLIHGDRNNYLAWYVQKPGQSPQLLIYLASSRASGVPDRFSGSGSDKDFTLKISRVETEDVGTYYCMQGRESPWTFGQGTKVDIKR	2.55
